assayed_system: T1, human Bcl-xL ΔC24 (human, UniProt Q07817 1-209)
T1 construct: Expressed as GST fusion and cleaved off the glutathione column; also called hBcl-xL ΔC24
T1 sequence (Q07817 other isoform, or with tags, fused parts or gaps mutant limits assumed): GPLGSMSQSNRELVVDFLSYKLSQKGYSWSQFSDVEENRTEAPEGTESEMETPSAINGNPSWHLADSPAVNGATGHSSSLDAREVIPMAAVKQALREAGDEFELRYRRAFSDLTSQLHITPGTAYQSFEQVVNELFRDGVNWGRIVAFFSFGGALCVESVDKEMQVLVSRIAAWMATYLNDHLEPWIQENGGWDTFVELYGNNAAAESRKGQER
method: Biacore solution competition against immobilised mouse wtBimBH3
measured_endpoint: IC50 (nM)

Some solved cases for reference:
binder	IC50 [nM]
DIIRNIARHLAQVGDSMDRSIPPG (also called BidBH3) [Bid (81-104) BH3 peptide, human]	82
NLWAAQRYGRELRRMSDEFVDSFKKG (also called BadBH3) [Bad (103-128) BH3 peptide, human]	5.3

1: MEGSDALALRLACIGDEMDVSLRAP (also called BikBH3; hBik) [Bik (51-75) BH3 peptide, human]
2: HRAEVQIARKLQCIADQFHRLHTQ (also called BmfBH3) [m Bmf (128-151) BH3 peptide]
Incoming: # return whichever of 1 and 2 has the smaller IC50 Respond using the label that marks the chosen record.
Outgoing: 2
(2: 9.7 nM, 1: 43 nM)
